Assay: clinical
Settings: male, human, in vivo, 3 mg
measurementType: Cmax

Returns the measured Cmax for the input compound. Input: COC[C@@]1(O)CC[C@]2(C)C3CC[C@@]4(C)C(CC[C@@H]4C(=O)Cn4ccnc4)C3CC[C@H]2C1 (stereo partly shown)
4 to 8 ng/mL

---

Assay: clinical
Settings: male, human, in vivo, po, 1 mg
measurementType: Tmax (h)
Field: numeric (h). Do not append units.

Returns the measured Tmax for the input molecule. Input: COC[C@@]1(O)CC[C@]2(C)C3CC[C@@]4(C)C(CC[C@@H]4C(=O)Cn4ccnc4)C3CC[C@H]2C1 (stereo partly shown)
3.1

---

Assay: clinical
Settings: male, human, in vivo, po, 60 mg, AUC (0-24)
measurementType: AUC(0-t)
Number first, unit second.

Returns the measured AUC(0-t) for the input compound. Input: COC[C@@]1(O)CC[C@]2(C)C3CC[C@@]4(C)C(CC[C@@H]4C(=O)Cn4ccnc4)C3CC[C@H]2C1 (stereo partly shown)
2330 ng·h/mL

---

Test: escalating single-dose, randomized, double blind, placebo-controlled pharmacokinetic study, oral suspension, healthy male subjects
Conditions: human, plasma, 1 mg
measurementType: half-life (min)
Field: numeric (min). Do not append units.

Returns the measured half-life for the input compound. Input: COC[C@@]1(O)CC[C@]2(C)C3CC[C@@]4(C)C(CC[C@@H]4C(=O)Cn4ccnc4)C3CC[C@H]2C1 (stereo partly shown)
828

---

Assay: clinical
Details: male, human, in vivo, 10 mg
measurementType: Cmax

Returns the measured Cmax for the input compound. Input: COC[C@@]1(O)CC[C@]2(C)C3CC[C@@]4(C)C(CC[C@@H]4C(=O)Cn4ccnc4)C3CC[C@H]2C1 (stereo partly shown)
16.9 to 46.3 ng/mL

---

Test: clinical
Details: male, human, in vivo, po, 3 mg
measurementType: half-life (h)
Field: numeric (h). Do not append units.

Returns the measured half-life for the input compound. Input: COC[C@@]1(O)CC[C@]2(C)C3CC[C@@]4(C)C(CC[C@@H]4C(=O)Cn4ccnc4)C3CC[C@H]2C1 (stereo partly shown)
8.8

---

Assay: clinical
Conditions: male, human, in vivo, po, 3 mg, AUC (0-last)
measurementType: AUC(0-t) (ng·h/mL)
Field: numeric (ng·h/mL). Do not append units.

Returns the measured AUC(0-t) for the input compound. Input: COC[C@@]1(O)CC[C@]2(C)C3CC[C@@]4(C)C(CC[C@@H]4C(=O)Cn4ccnc4)C3CC[C@H]2C1 (stereo partly shown)
65.6

---

Assay: clinical
Settings: male, human, in vivo, po, 10 mg
measurementType: Tmax

Returns the measured Tmax for the input compound. Input: COC[C@@]1(O)CC[C@]2(C)C3CC[C@@]4(C)C(CC[C@@H]4C(=O)Cn4ccnc4)C3CC[C@H]2C1 (stereo partly shown)
1.7 h

---

Experiment: clinical
Settings: male, human, in vivo, po, 60 mg
measurementType: Tmax

Returns the measured Tmax for the input compound. Input: COC[C@@]1(O)CC[C@]2(C)C3CC[C@@]4(C)C(CC[C@@H]4C(=O)Cn4ccnc4)C3CC[C@H]2C1 (stereo partly shown)
1.8 h

---

Test: clinical
Details: male, human, in vivo, 1 mg
measurementType: Cmax

Returns the measured Cmax for the input molecule. Input: COC[C@@]1(O)CC[C@]2(C)C3CC[C@@]4(C)C(CC[C@@H]4C(=O)Cn4ccnc4)C3CC[C@H]2C1 (stereo partly shown)
1 to 1.8 ng/mL

---

Test: clinical
Details: male, human, in vivo, po
measurementType: Tmax

Returns the measured Tmax for the input molecule. Input: COC[C@@]1(O)CC[C@]2(C)C3CC[C@@]4(C)C(CC[C@@H]4C(=O)Cn4ccnc4)C3CC[C@H]2C1 (stereo partly shown)
1 to 3 h

---

Assay: clinical
Conditions: male, human, in vivo, po, 60 mg
measurementType: Cmax (ng/mL)
Field: numeric (ng/mL). Do not append units.

Returns the measured Cmax for the input compound. Input: COC[C@@]1(O)CC[C@]2(C)C3CC[C@@]4(C)C(CC[C@@H]4C(=O)Cn4ccnc4)C3CC[C@H]2C1 (stereo partly shown)
330

---

Test: clinical
Settings: male, human, in vivo, po, 30 mg
measurementType: Cmax (ng/mL)
Field: numeric (ng/mL). Do not append units.

Returns the measured Cmax for the input molecule. Input: COC[C@@]1(O)CC[C@]2(C)C3CC[C@@]4(C)C(CC[C@@H]4C(=O)Cn4ccnc4)C3CC[C@H]2C1 (stereo partly shown)
120

---

Test: clinical
Settings: male, human, in vivo, po, 3 mg
measurementType: Tmax (h)
Field: numeric (h). Do not append units.

Returns the measured Tmax for the input compound. Input: COC[C@@]1(O)CC[C@]2(C)C3CC[C@@]4(C)C(CC[C@@H]4C(=O)Cn4ccnc4)C3CC[C@H]2C1 (stereo partly shown)
2.8

---

Assay: clinical
Details: male, human, in vivo, po, 1 mg, AUC (0-last)
measurementType: AUC(0-t)
Number first, unit second.

Returns the measured AUC(0-t) for the input compound. Input: COC[C@@]1(O)CC[C@]2(C)C3CC[C@@]4(C)C(CC[C@@H]4C(=O)Cn4ccnc4)C3CC[C@H]2C1 (stereo partly shown)
22.4 ng·h/mL

---

Test: clinical
Details: male, human, in vivo, 60 mg
measurementType: Cmax

Returns the measured Cmax for the input molecule. Input: COC[C@@]1(O)CC[C@]2(C)C3CC[C@@]4(C)C(CC[C@@H]4C(=O)Cn4ccnc4)C3CC[C@H]2C1 (stereo partly shown)
218 to 479 ng/mL

---

Assay: escalating single-dose, randomized, double blind, placebo-controlled pharmacokinetic study, oral suspension, healthy male subjects
Conditions: human, plasma, 60 mg
measurementType: half-life (h)
Field: numeric (h). Do not append units.

Returns the measured half-life for the input molecule. Input: COC[C@@]1(O)CC[C@]2(C)C3CC[C@@]4(C)C(CC[C@@H]4C(=O)Cn4ccnc4)C3CC[C@H]2C1 (stereo partly shown)
12.5
